test.protocol: PK in dogs after i.v. C118P
Format: in vivo, beagle dogs
applied.conditions: both sexes, beagle, dog, intravenous; dogs, plasma, i.v. C118P 3 mg/kg, n = 6; read-out: C2min
readout.kind: concentration at 2 min

Indicate the recorded concentration at 2 min value for this molecule: COc1cc(OC)cc(-c2nc[nH]c2-c2ccc(OC)c(O)c2)c1
0.861 µg/mL

====

test.protocol: PK in tumor-bearing nude mice after i.v. C118P
Assay type: in vivo, nude mice (BALB/cA) implanted with NCI-H460 tumor
applied.conditions: BALB/cA nude, mouse, in vivo; nude mice, plasma, i.v. C118P 75 mg/kg, n = 4; read-out: C2min
readout.kind: concentration at 2 min
Record the result as a number with its unit.

Provide only the value of recorded concentration at 2 min for COc1cc(OC)cc(-c2nc[nH]c2-c2ccc(OC)c(OP(=O)([O-])[O-])c2)c1.[Na+].[Na+] [C118P]
106 µg/mL
